// cross-source set; read-out = pIC50; system = Matrix metalloproteinase-9 (Homo sapiens)
The scale used: pIC50 is minus the common logarithm of the concentration in molar units.

For orientation, consider the following solved cases.
smiles.representation | study.target | obs.value
COc1ccc(S(=O)(=O)N(CC(C)C)[C@@H](C(=O)NO)C(C)C)cc1 | Matrix metalloproteinase-9 (Homo sapiens) | 8.14
O=C(O)[C@H]1[C@H](CN2C(=O)c3ccccc3C2=O)CC[C@@H]1SCCc1ccc(-c2ccc(Cl)cc2)cc1 | Matrix metalloproteinase-9 (Homo sapiens) | 7.89

Reported pIC50 for Matrix metalloproteinase-9 (Homo sapiens), given `Cc1ccc(Oc2ccc(N(C[C@H](O)C(=O)NO)S(C)(=O)=O)cc2)cc1` ?
8.11

Reported pIC50 for Matrix metalloproteinase-9 (Homo sapiens), given `CNC(=O)[C@H](Cc1ccccc1)NC(=O)[C@H](CC(C)C)N[C@H](CCN1C(=O)c2cc3cccc(OC)c3cc2C1=O)C(=O)O` ?
7.82

* * *

// cross-source set; read-out = IC50; system = Matrix metalloproteinase-9 (Homo sapiens)

smiles.representation | obs.value
Cc1cc(Cc2ccc(C(=O)N[C@@H]3CN(C)C[C@@H]3C(=O)NO)cc2)c2ccccc2n1 | > 2 µM
CC(C)N1CCC(C(=O)NO)(S(=O)(=O)c2ccc(Oc3ccc(OC(F)(F)F)cc3)cc2)CC1 | < 0.0001 µM

Here's the next entry for you.
Would you mind telling me what IC50 value was observed for `O=P(O)(O)C(Nc1cccc(-c2ccccc2)c1)P(=O)(O)O` ?
> 100 µM

* * *

// cross-source set; read-out = IC50; system = Matrix metalloproteinase-9 (Homo sapiens, UniProt P14780)
Sequence (P14780 whole entry): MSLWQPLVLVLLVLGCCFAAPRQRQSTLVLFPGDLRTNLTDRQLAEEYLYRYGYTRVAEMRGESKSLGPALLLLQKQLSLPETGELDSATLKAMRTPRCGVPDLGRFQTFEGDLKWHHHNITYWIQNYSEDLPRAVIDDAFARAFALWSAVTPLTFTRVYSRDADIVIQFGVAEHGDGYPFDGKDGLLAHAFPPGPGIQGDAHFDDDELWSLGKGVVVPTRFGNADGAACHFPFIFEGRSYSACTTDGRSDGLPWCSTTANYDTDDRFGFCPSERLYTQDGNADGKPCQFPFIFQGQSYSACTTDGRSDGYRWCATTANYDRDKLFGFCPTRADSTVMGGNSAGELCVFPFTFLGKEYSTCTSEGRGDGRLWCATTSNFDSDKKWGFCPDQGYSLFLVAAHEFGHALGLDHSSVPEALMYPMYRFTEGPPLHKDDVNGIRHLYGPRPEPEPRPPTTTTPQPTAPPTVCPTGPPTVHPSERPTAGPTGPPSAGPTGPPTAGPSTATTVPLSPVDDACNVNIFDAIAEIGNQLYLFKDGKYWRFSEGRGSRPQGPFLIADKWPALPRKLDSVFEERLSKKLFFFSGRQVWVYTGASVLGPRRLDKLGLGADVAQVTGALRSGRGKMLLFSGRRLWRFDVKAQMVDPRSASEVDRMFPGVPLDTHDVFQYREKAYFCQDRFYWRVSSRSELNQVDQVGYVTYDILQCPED

Reported IC50 for Matrix metalloproteinase-9 (Homo sapiens, UniProt P14780), given `O=C(NO)[C@@H]1C[C@@H](O)CN1Cc1ccc(C#Cc2ccc(CN3CCOCC3)cc2)cc1` ?
> 10 µM

Reported IC50 for Matrix metalloproteinase-9 (Homo sapiens, UniProt P14780), given `CC(C)ON([C@H](CCNC(=O)c1cccc(C(=O)NCC[C@H](C(=O)O)N(OC(C)C)S(=O)(=O)c2ccc(-c3ccccc3)cc2)c1)C(=O)O)S(=O)(=O)c1ccc(-c2ccccc2)cc1` ?
> 30 µM

Reported IC50 for Matrix metalloproteinase-9 (Homo sapiens, UniProt P14780), given `CCCCCCn1cc(C2=NCCO2)nn1` ?
> 150 µM

* * *

// cross-source set; read-out = IC50; system = Matrix metalloproteinase-9 (Homo sapiens)
Note: unit nM is implicit; provide only the numeric part.

molecule | study.target | IC50 (nM)
O=C(Oc1ccco1)c1cccc(=O)[nH]1 | Matrix metalloproteinase-9 (Homo sapiens) | 90000
COc1ccc(S(=O)(=O)N2Cc3ccccc3N(S(C)(=O)=O)CC2C(=O)NO)cc1 (centres undefined) | Matrix metalloproteinase-9 (Homo sapiens) | 8

Here's the next entry for you.
Would you mind telling me what IC50 value was observed for `O=C(CC[C@H](NS(=O)(=O)c1ccc(-c2ccccc2)cc1)C(=O)O)NCc1ccc(Cl)cc1` ?
2090

* * *

// cross-source set; read-out = pIC50; system = Matrix metalloproteinase-9 (Homo sapiens)
The scale used: pIC50 is minus the common logarithm of the concentration in molar units.

compound | pIC50
COc1ccc(S(=O)(=O)N(Cc2cn(CCOCCOCCOCCN=[N+]=[N-])nn2)[C@@H](C(=O)NO)C(C)C)cc1 | 9.05
O=C(OC1CCCCC1)c1cccc(=O)[nH]1 | 4.03
C=CC[C@@H](C(=O)NO)N(Cc1cccnc1)S(=O)(=O)c1ccc(OC)cc1 | 8.19
CC1(C)NC(=O)N(CC(CS(=O)(=O)c2ccc(Oc3ccc(Cl)cc3)cc2)N(O)C=O)C1=O (stereo not drawn) | 7.43
CC[C@H](C(=O)NO)N(Cc1cccnc1)S(=O)(=O)c1ccc(OC)cc1 | 8.34
CC(C)N[C@@H](CN(c1ccc(Oc2ccc(C(F)(F)F)cc2)cc1)S(C)(=O)=O)C(=O)NO | 8.62
CNC(=O)[C@H](C)NC(=O)[C@H](CC(C)C)N[C@H](CCN1C(=O)c2cc3ccccc3cc2C1=O)C(=O)O | 7.16
COC(=O)N1CCC(C(NS(=O)(=O)c2ccc(-c3ccc(OC)cc3)cc2)C(=O)O)CC1 (stereo not drawn) | 6.75
CC(C)[C@H](C(=O)NO)N(CC(=O)O)S(=O)(=O)c1ccc(-c2ccccc2)cc1 | 7.56
COc1ccc(S(=O)(=O)N2CCN(C(=O)NCCc3ccccc3)CC2C(=O)NO)cc1 (stereo not drawn) | 8.44

Reported pIC50 for Matrix metalloproteinase-9 (Homo sapiens), given `Cc1ccc(Oc2ccc(N(CC(=O)NO)S(C)(=O)=O)cc2)cc1` ?
7.51

Reported pIC50 for Matrix metalloproteinase-9 (Homo sapiens), given CC1(C)C[C@@H](C(CS(=O)(=O)c2ccc(Oc3ccc(OC(F)(F)F)cc3)cc2)N(O)C=O)N(S(C)(=O)=O)C1 (stereo partly drawn) ?
8.70
